System: ACHN
Assay: NCI tumour cell line growth inhibition, 48 h
Activity calls are given as the source filed them. Cut-off read from the data, not from the text of the source: active = GI50 up to about 1.1 µM and inactive = higher.
endpoint label: GI50

O=C(C[n+]1ccccc1)N/N=C(\Cc1nc2ccc([N+](=O)[O-])cc2nc1O)C(=O)Nc1cc(Cl)c(Cl)cc1Cl
> 100 µM (inactive)
Cc1ccc(-c2c(N)nc(NC#N)nc2CCC(=O)Nc2ccccc2[N+](=O)[O-])cc1
> 100 µM (inactive)
c1ccc(C2OCCO2)c(OCCOc2cc(OCCOc3ccccc3C3OCCO3)c(OCCOc3ccccc3C3OCCO3)cc2OCCOc2ccccc2C2OCCO2)c1
24.7 µM (inactive)

Kindly consider the entry below.
## Task For ACHN, give GI50 of the listed compound: Cn1c2c(c3ccccc31)CCN1C(=O)C34CCCC3CC21S4 (centres undefined)
## Result > 100 µM (inactive)
